// data source = patent US10975068B2

- Tgt: human RORγt ligand binding domain (RORγt LBD) (Homo sapiens (Human))
- Sequence (P51449 other isoform, or with tags, fused parts or gaps): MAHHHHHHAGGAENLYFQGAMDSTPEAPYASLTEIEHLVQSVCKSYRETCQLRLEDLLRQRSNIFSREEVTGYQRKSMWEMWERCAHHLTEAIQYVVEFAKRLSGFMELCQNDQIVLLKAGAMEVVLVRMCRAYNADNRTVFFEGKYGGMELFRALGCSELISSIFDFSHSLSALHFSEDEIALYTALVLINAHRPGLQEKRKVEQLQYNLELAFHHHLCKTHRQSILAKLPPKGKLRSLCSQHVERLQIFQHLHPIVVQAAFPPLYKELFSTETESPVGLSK
- Method summary: RORγt ThermoFluor® assay (thermal shift binding)
- Test parameters: read-out: ThermoFluor® Assay, Kd
Endpoint name: Kd (nM)

C[C@H]1CCCN1C(=O)c1nc(C(=O)NCc2nnn[nH]2)sc1-c1cnc(NC(C)(C)C)cc1C(F)(F)F [Example 303] = 15

[a] C[C@H]1CCCN1C(=O)c1nc(C(=O)NCC(C)(C)O)sc1-c1ccnc(NC2CCCCC2)c1C#N [Comparator Example 1, reference compound]
[b] CC[C@@H](Nc1cc(C(F)F)c(-c2sc(C(=O)N[C@@H](C)C(C)(C)O)nc2C(=O)N2CCC[C@@H]2C)cn1)C(F)(F)F [Example 230]
[c] C[C@H](Nc1cc(C(F)F)c(-c2sc(C(=O)N[C@H]3CC[C@H](O)C3)nc2C(=O)N2CC(F)(F)C[C@@H]2C)cn1)C(F)(F)F [Example 415]
[d] C[C@H](Nc1cc(C(F)F)c(-c2sc(C(=O)N[C@@H]3C[C@H]3O)nc2C(=O)N2CCC[C@@H]2C)cn1)C(F)(F)F (single isomer, unassigned) [Example 157]
[e] C[C@H]1CC(F)(F)CN1C(=O)c1nc(C(=O)N[C@H](C)C(C)(C)O)sc1-c1cnc(NC2(C)CCC2)cc1C(F)(F)F [Example 196]
QUERY: Sort entries by Kd from minimum to maximum value. Write the labels in rank order as requested.
RESULT: e, c, b, d, a
(e: 0.64 nM, c: 1.1 nM, b: 2.4 nM, d: 32 nM, a: 3000 nM)
